From: the CATMoS acute toxicity set (Mansouri et al. 2021)

TEST_DETAILS: rat acute oral toxicity
TEST_CONTEXT: in vivo
Rule: LD50 below 600 mg/kg gives Criterion met. Equal to or above 600 mg/kg gives Criterion not met.

# COMPOUND, CLASS_NAME
measured = [
    ("COCC(C)OC(C)=O (configuration not stated)", "Criterion not met"),
    ("Cc1c(Cl)cccc1[N+](=O)[O-]", "Criterion not met"),
    ("O=C=Nc1cccc(C(F)(F)F)c1", "Criterion not met"),
    ("CC1(C)[C@H](/C=C(\\Cl)C(F)(F)F)[C@@H]1C(=O)O[C@H](C#N)c1cccc(Oc2ccccc2)c1", "Criterion met"),
    ("COc1ccc(O)c(C(C)(C)C)c1", "Criterion not met"),
    ("CCOP(=S)(Oc1ccc([N+](=O)[O-])cc1)c1ccccc1 (configuration not stated)", "Criterion met"),
    ("CC(C)OC(=O)Cl", "Criterion met"),
    ("COC(=O)C(N)Cc1cnc[nH]1 (configuration not stated)", "Criterion not met"),
    ("CCC[N+](CCC)(CCC)CCC", "Criterion not met"),
    ("COc1nn(CSP(=S)(OC)OC)c(=O)s1", "Criterion met"),
    ("CC(C)NC(C)C", "Criterion met"),
    ("OCCc1ccccc1", "Criterion not met"),
    ("ClC1=C(Cl)C2(Cl)C3C(Cl)C=CC3C1(Cl)C2(Cl)Cl (configuration not stated)", "Criterion met"),
    ("O=C(O)c1ccc2c(c1)C(=O)OC2=O", "Criterion not met"),
    ("CNP(=O)(OC)Oc1ccc(C(C)(C)C)cc1Cl (configuration not stated)", "Criterion met"),
    ("CC[Si](Cl)(Cl)Cl", "Criterion not met"),
    ("CCCSC(=O)N(CCC)CCC", "Criterion not met"),
    ("COCCO", "Criterion not met"),
    ("CC(C)(C)OOC(=O)c1ccccc1", "Criterion not met"),
    ("OCC(CO)(CBr)CBr", "Criterion not met"),
    ("C#CC(C)(C)NC(=O)c1cc(Cl)cc(Cl)c1", "Criterion not met"),
    ("NC1CCCCC1N (configuration not stated)", "Criterion not met"),
    ("COC(=O)CC(C)=O", "Criterion not met"),
    ("OCCOCCOc1ccccc1", "Criterion not met"),
    ("Cc1ccc(Cl)cc1", "Criterion not met"),
    ("CCCC(=NOCC)C1=C(O)CC(CC(C)SCC)CC1=O (configuration not stated)", "Criterion not met"),
    ("O=[N+]([O-])c1ccc(Cl)c([N+](=O)[O-])c1", "Criterion not met"),
    ("Oc1ccccc1Cl", "Criterion met"),
    ("Clc1ccccc1", "Criterion not met"),
    ("CN(C)c1ccc(N)cc1", "Criterion met"),
    ("CCCCCCCCCCCCCC[N+](C)(C)Cc1ccccc1", "Criterion met"),
]

---

TEST_DETAILS: GHS categories as the set defines them, by LD50: 1 up to 5, 2 up to 50, 3 up to 300, 4 up to 2000, 5 above 2000 mg/kg
TEST_CONTEXT: rat; in vivo; po
Form field: GHS category (one value per entry).

# MOLECULE, GHS category
records = [
    ("O=C(NC(CCc1ccc2c(c1)OCO2)CCc1ccc2c(c1)OCO2)c1cc2ccccc2o1", 5),
    ("O=C(O)CCC(CC(=O)O)(C(=O)O)P(=O)(O)O (stereo not given)", 5),
    ("CCCCCCCC/C=C\\CCCCCCCC(=O)OCC(COC(=O)CCCCCCC/C=C\\CCCCCCCC)OC(=O)CCCCCCC/C=C\\CCCCCCCC", 5),
    ("O=CCCc1ccccc1", 5),
    ("CC(C)CC(=O)OCc1ccccc1", 5),
    ("C=COCCCN", 4),
    ("CCCCCCCCCCCCCC[Si](C)(O[Si](C)(C)C)O[Si](C)(C)C", 5),
    ("CCCCC(C)OP(=S)(OC)OC (stereo not given)", 4),
    ("C=CCCCCCCCC(=O)N(C)C", 4),
    ("OC1CCC2CCCCC2C1 (stereo not given)", 5),
    ("CC(=O)C[N+]1(CC(N)=O)C(=O)Sc2ccc(Cl)cc21 (stereo not given)", 5),
    ("O=c1c2ccccc2c(=O)c2c1cc(Cl)c1[nH]c3c([nH]c12)c(Cl)cc1c(=O)c2ccccc2c(=O)c13", 5),
    ("CCN(C(=O)CCCSc1nnnn1C)c1ccccn1", 4),
    ("CC(C)(C)C(=O)OCC(=O)c1ccccc1", 5),
    ("CCCCCC(=O)[Si](C)(C)C", 5),
    ("Cc1ccc(C2=NCOCS2)cc1", 4),
    ("Cl[Si](Cl)(C1CCCC1)C1CCCC1", 5),
    ("CC(C)CCCCCCCCOCCCNCCC#N", 5),
    ("O=S(=O)([O-])CCC[n+]1ccccc1", 5),
    ("CCOC(=O)C(=O)Nc1cc(OC)ncn1", 4),
    ("CCCCC(CC)COC(=O)c1ccc([N+](=O)[O-])cc1 (stereo not given)", 5),
    ("C[C@@H](O)[C@H]1C(=O)N2C(C(=O)O)=C(S[C@@H]3CN[C@H](C(=O)N(C)C)C3)[C@H](C)[C@H]12", 5),
    ("Cc1cc(C(=O)Nc2ccccc2C)n[nH]1", 5),
    ("CCOC[C@H]1CO[C@@](Cn2cncn2)(c2cc3cc(Cl)cc(Cl)c3o2)O1", 4),
    ("O=C(Nc1ccccc1C(=O)O)C(=Cc1ccccc1)C(=O)Nc1ccccc1C(=O)O", 5),
]

---

Form field: GHS category (one value per entry).
TEST_DETAILS: GHS categories as the set defines them, by LD50: 1 up to 5, 2 up to 50, 3 up to 300, 4 up to 2000, 5 above 2000 mg/kg
TEST_CONTEXT: rat; in vivo; po

# MOLECULE, GHS category
rows = [
    ("CCCNC(=O)Cc1cnc2cccc(C)n2c1=O", 3),
    ("C=CC(C)CCC=C(C)C (configuration not stated)", 5),
    ("CON=C(C(=O)N[C@@H]1C(=O)N2C(C(=O)OC(C)OC(C)=O)=C(COC(N)=O)CS[C@H]12)c1ccco1 (some centres not stated)", 5),
    ("NC1=NCC2c3ccccc3Cc3ccccc3N12 (configuration not stated)", 4),
    ("C[N+](C)(C)CC(O)CC(=O)[O-] (configuration not stated)", 5),
    ("CNc1ccc(C(=O)c2ccccc2)cc1O", 5),
    ("c1cc2c(c(OCCN3CCCCC3)c1)OCCO2", 5),
    ("CCCCCCCCCCCCCOC(=O)c1ccccc1C(=O)OCCCCCCCCCCCCC", 5),
    ("CCOC(=O)CCSc1cc(NC(=O)C(=O)OCC)ncn1", 4),
    ("CCCCCCC(O)CCCCCCCCCCC(=O)OCC(COC(=O)CCCCCCCCCCC(O)CCCCCC)OC(=O)CCCCCCCCCCC(O)CCCCCC (configuration not stated)", 5),
    ("CCCCCCCCCCCCCCCCCCCCCC(=O)O", 5),
    ("CCC=CCC=CCC=CCC=CCCCCC(=O)OCC", 5),
]

---

TEST_DETAILS: GHS categories as the set defines them, by LD50: 1 up to 5, 2 up to 50, 3 up to 300, 4 up to 2000, 5 above 2000 mg/kg
TEST_CONTEXT: rat; in vivo; po
Excerpt: […]The data set underlying the modeling effort for this project was initially compiled by NICEATM and U.S. EPA’s CCTE. Briefly, LD50 data were collected from rat acute oral systemic toxicity tests, including limit tests, ranges/confidence intervals, and discrete LD50 values. The full data set included 21,200 LD50 entries for 15,688 substances. […]
Form field: GHS category (one value per entry).

# MOLECULE, GHS category
rows = [
    ("CC(=O)C1(Cl)CC1", 4),
    ("O=C(CCl)OC(=O)CCl", 3),
    ("CCCCCCCCCCCCCCCC(=O)OC[C@@H](O)[C@H]1OC[C@H](O)[C@H]1O", 5),
    ("CC(=O)Nc1ccc(C2=NN(C(C)=O)C(C)Cc3cc4c(cc32)OCO4)cc1 (centres undefined)", 4),
    ("CCOCC1COC(Cn2cncn2)(c2cc3ccccc3o2)O1 (centres undefined)", 4),
    ("CO[C@@]1(NC(=O)CSC[C@@H](N)C(=O)O)C(=O)N2C(C(=O)O)=C(CSc3nnnn3C)CS[C@@H]21", 5),
    ("Cc1c(Cl)c(=O)oc2cc(OP(=O)(OCCCCCl)OCCCCCl)ccc12", 3),
    ("O=C1NC(=O)C2CC=CCC12 (centres undefined)", 5),
    ("CCCCC(=O)O[C@]1(C(=O)COC(C)=O)CC[C@H]2[C@@H]3CCC4=CC(=O)C=C[C@]4(C)[C@H]3[C@@H](O)C[C@@]21C", 5),
    ("CCC(=O)OCCCc1ccccc1", 5),
    ("Cc1ccc(NC(=O)N(C)C)cc1NC(=O)N(C)C", 5),
    ("COC(=O)CCC(=O)OC", 5),
    ("CC(C)C(N)C(=O)OCc1ccccc1 (centres undefined)", 5),
    ("CCN1C(=CC=CC=Cc2sc3ccccc3[n+]2CC)Sc2ccccc21", 3),
    ("CC(=O)O[C@]1(C(C)=O)CC[C@H]2[C@@H]3C=C(Cl)C4=CC(=O)[C@@H]5C[C@@H]5[C@]4(C)[C@H]3CC[C@@]21C", 5),
    ("COC(=O)CSP(=S)(OC)OC", 5),
    ("CCCCNC1CC(C)(C)NC(C)(C)C1", 4),
    ("Nc1ccc2cc(S(=O)(=O)O)c(/N=N/c3ccc(-c4ccc(/N=N/c5ccc(O)c(C(=O)O)c5)cc4)cc3)c(O)c2c1", 5),
    ("CCCOC(C)OCCC", 5),
    ("OC1C(Cl)(Cl)C(=C(Cl)Cl)C(O)(C(Cl)Cl)C1(Cl)Cl (centres undefined)", 4),
    ("Nc1ccc(S(=O)(=O)c2ccc(NCCO)cc2)cc1", 5),
    ("O=C1CCC(N2C(=O)c3ccccc3C2=O)C(=O)N1CN1CCOCC1 (centres undefined)", 5),
    ("CC(C)CCCCCCCCCCCCCCCOC(=O)CCCCCCCCCCCCCCC(C)C", 5),
    ("CC(C)=CCC/C(C)=C/COC(=O)C(C)C", 5),
]
